The measured values listed here are drawn from the supplement of paper PMC9170038.

- System: K4 kissing-loop RNA reporter;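 also: bound reporter read as fluorescence of individual clusters on recovered sequencing chips by microscopy, with normalized cluster intensities fitted with a binding model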
- MEASUREMENT PROTOCOL: apparent KD of K4 kissing-loop reporter; higher = weaker reporter binding
- EXPERIMENTAL CONDITIONS: Eterna round: R107; input ligand: arginine 13.2 mM
Below, each of the sequences is paired with its reported apparent KD of K4 kissing-loop reporter value.
State the answer as a number, implicitly in nM.

Task item: // Input: GAUGCAUAUUCCUGGAGGAAGAUGGUUAAGAAGGAUAUCAAAGCCGUGAGAAGGUCUAAACCUAAUAGUCGAGUGAUGUUCGACC [theeternabot_sameState_KL_FMN_A_35] . Output its apparent KD of K4 kissing-loop reporter only.
Reply: 309

Task item: // Input: CGCCGUAAGGCGGUCGCUCCCACUCCGGAAGGAGCGCCCGUAAGGGCAGGUAGGUCGCCGGAGUGAUGUUCCGGUGGAGGGACCG [#2 Exclusion - Arginine A Attempt #8 (Inspired by Omei)] . Output its apparent KD of K4 kissing-loop reporter only.
Reply: 274

Task item: // Input: UGAUACCAGACGGCCGCCACUGGUGCAGUCAAAGACUGCUAAAACCAAAUCGUGGAGUGAUGUUCCAGGACCGGGUCUGGUAUCU [TrypBX 20 #SwitchBubble #Palindromic #StaticStem] . Output its apparent KD of K4 kissing-loop reporter only.
Reply: 423

Task item: // Input: CGAAGAGAGUGAUGUUCUCUAGGCAAAAGAAAGGAUAUAAUGUUUGUUAGAAGGUUCGGAAAAUGGAACGUCGGCCCGUACAACC [theeternabot_exclusion_KL_FMN_A_18] . Output its apparent KD of K4 kissing-loop reporter only.
Reply: 129

Task item: // Input: AAUAAAAUCACGGCCGCCACUGAUUUUUUUAUUAGGAGUGAUGUUCCUAUGACUAUAUUAUUUAACAGGACCGGGUGAAUAUUUA [JR_SSTryptoB_Sub023] . Output its apparent KD of K4 kissing-loop reporter only.
Reply: 97.5

Task item: // Input: GGGAAGAAGGCGGCCGCCACUGCAGAAGAGACAGAGAGGGUAGAAGAGGAGUGAUGUUCCAAGAACAGGACCGGGCCAAGAAGGG [whbob_SS_Tryp_B_t30] . Output its apparent KD of K4 kissing-loop reporter only.
Reply: 172

Task item: // Input: UUAGGAGUGGAAGGAUAUCCUGGUGUGGGUGAUGUUAGUGAUGUUGAAAGUGCAGUGAUGUUGCGCGGAGAAGGUCCGGUGUUGA [BDazzled - #7 - Exc. FMN B] . Output its apparent KD of K4 kissing-loop reporter only.
Reply: 153

###

- Tested on: MS2 coat protein
- MEASUREMENT PROTOCOL: apparent KD of MS2 coat protein; designed switch direction (-1 OFF switch, 1 ON switch): -1; higher = weaker reporter binding
- EXPERIMENTAL CONDITIONS: Eterna round: R95; input ligand: FMN 200 uM
Below, each of the sequences is paired with its reported apparent KD of MS2 coat protein value.
State the answer as a number, implicitly in µM.

SEQUENCE CODE	QUANTITY UNIT	apparent KD of MS2 coat protein
AAGAACGUAGGAUAUACAUGAGGAUCACCCAUGUGAGGAAGGAGUAGGAAGUGUGGAAGUAGAAGGACGGAGAG [JR_Exclu3_Sub076] (puzzle: Exclusion 3)	µM	0.0315
GGUCAAGAACAGAACCGCGCUGCCAUUGACCGCUCAUUUACAUGAGGAUCACCCAUGUUUUUUGCUUGUCUUGUUAC [Beusdieson] (puzzle: Sensor v3, turn-off variant 2)	µM	0.0162
CUGGUCCGAGGAUAUUUUAUGUGAUACAUGAGGAUCACCCAUGUUAUAUGAUGGAUGUUAAAAGAAGGCGGACUAG [Mat - Exclusion 5 - JL mod - D80] (puzzle: Exclusion 5)	µM	0.077
AGUACUAACUCGAAAGUGUUAGUACAAUAAGCUUGUGAAACAUGAGGAUCACCCAUGUCCUCAUAAGCUCGUCUUAU [salish99_TOv2_r3_022] (puzzle: Sensor v3, turn-off variant 2)	µM	0.0157

Next up:
Task item: // Input: CUGGUCCGAGGAUAUAUUAUGUGAUACAUGAGGAUCACCCAUGUUAUAUGAUGGAUAUUAAUAGAAGGCGGACUAG [Mat - Exclusion 5 - JL mod - D73] (puzzle: Exclusion 5) . Output its apparent KD of MS2 coat protein only.
Reply: 0.0855
